# TEST_DETAILS: Cytotoxic concentration required to reduce HEL cell growth by 50%
# Assay type: cell-based
# CONDITION_SUMMARY: human, HEL cells
EXPERIMENTAL_READOUT: CC50

Return reported CC50; argument: Cc1nn([C@H]2C[C@H](O)[C@@H](CO)S2)c(=O)nc1O
166 µM

Return reported CC50; argument: Cc1nn([C@H]2C[C@H](O)[C@@H](CO)S2)c(=O)nc1N
> 40 µM

Return reported CC50; argument: CCCc1nn([C@H]2C[C@H](O)[C@@H](CO)S2)c(=O)[nH]c1=O
> 40 µM

Return reported CC50; argument: Nc1nc2c(ncn2COC(CO)CO)c(=O)[nH]1
> 150 µM

Return reported CC50; argument: CC(=O)OC[C@H]1S[C@@H](n2nc(C)c(=S)[nH]c2=O)C[C@@H]1OC(C)=O
> 40 µM

Return reported CC50; argument: Cc1nn([C@H]2C[C@H](O)[C@@H](CO)S2)c(=O)[nH]c1=S
> 40 µM
